Tested on: EGFP reporter (7×TetO array, basal CMV promoter) in HEK293T reporter cell line
Assay: TAD-seq pooled activation screen of 60-aa fragments fused to PYL1
Assay type: cell-based, human
Settings: log 2 fold change of counts, sorted medium GFP cells (top 2-5%) vs unsorted cells; 100 μM ABA 48 hours
The threshold is inclusive: logFC medium GFP of exactly 0.9 counts as Condition met; values below receive Condition not met.

- Substance: "SPDYE4-4: 60-aa TAD-seq fragment of SPDYE4 (SEEELEEELELERAPEPEDTWVVETLCGLKMKLKRKRASSVLPEHHEAFNRLLGDPVVQK; listed as Homo sapiens)"
  Target: "EGFP reporter (7×TetO array, basal CMV promoter) in HEK293T reporter cell line"
  Classification: "Condition met"
- Substance: "RELB-3: 60-aa TAD-seq fragment of RELB (SSLSLAVSRSTDELEIIDEYIKENGFGLDGGQPGPGEGLPRLVSRGAASLSTVTLGPVAP; listed as Homo sapiens)"
  Target: "EGFP reporter (7×TetO array, basal CMV promoter) in HEK293T reporter cell line"
  Classification: "Condition met"
- Substance: "KLF7-1: 60-aa TAD-seq fragment of KLF7 (MDVLASYSIFQELQLVHDTGYFSALPSLEETWQQTCLELERYLQTEPRRISETFGEDLDC; listed as Homo sapiens)"
  Target: "EGFP reporter (7×TetO array, basal CMV promoter) in HEK293T reporter cell line"
  Classification: "Condition met"
- Substance: "MYOD1-2: 60-aa TAD-seq fragment of MYOD1 (CSFATTDDFYDDPCFDSPDLRFFEDLDPRLMHVGALLKPEEHSHFPAAVHPAPGAREDEH; listed as Homo sapiens)"
  Target: "EGFP reporter (7×TetO array, basal CMV promoter) in HEK293T reporter cell line"
  Classification: "Condition not met"
